Hey, just so you know, these numbers are from patent US7981903B2.

assaySystem: human IGF1R (hIGF1R) (Homo sapiens, UniProt P08069)
Construct: containing amino acid residues 957-1367 of human IGF1R; made in house; host or cells: Sf9 cells (baculovirus)
Sequence (P08069 957-1367): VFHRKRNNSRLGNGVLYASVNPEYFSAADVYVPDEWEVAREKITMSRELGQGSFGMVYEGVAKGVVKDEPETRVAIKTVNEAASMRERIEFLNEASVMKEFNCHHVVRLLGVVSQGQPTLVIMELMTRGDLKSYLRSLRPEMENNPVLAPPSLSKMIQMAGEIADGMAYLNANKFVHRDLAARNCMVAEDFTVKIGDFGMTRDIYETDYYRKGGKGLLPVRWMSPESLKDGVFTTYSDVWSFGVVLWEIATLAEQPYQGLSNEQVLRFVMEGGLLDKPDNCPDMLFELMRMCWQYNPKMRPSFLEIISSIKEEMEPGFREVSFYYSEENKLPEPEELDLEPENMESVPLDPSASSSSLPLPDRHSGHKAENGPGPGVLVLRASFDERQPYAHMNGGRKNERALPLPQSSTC
protocolText: TR-FRET kinase assay of purified hIGF1R
Format: biochemical
conditionSummary: activated hIGF1R 0.5 nM, 10 μM ATP, values given as pIC50 category, read-out: IGF-1R pIC50 (converted)
Below, each entry is listed alongside its reported IC50.

The examples below pair each entry with its known result.
compound | IC50
COc1ccc(OC[C@@H](O)CN(C)C)cc1Nc1nc(Nc2cc(F)ccc2C(N)=O)c2cc[nH]c2n1 [Example 86] | 0.251 to 1 nM
COc1ccc(N2CCN(C(C)C)CC2)cc1Nc1nc(Nc2ccccc2C(N)=O)c2cc[nH]c2n1 [Example 10] | 1.26 to 3.98 nM

Asked: Recall and state the measured IC50 for CNC(=O)c1c(F)cccc1Nc1nc(Nc2cc3c(cc2OC)CCN(C(C)C)C3)nc2[nH]ccc12 [Example 235] .
Given back: 5.01 to 200 nM

Asked: Recall and state the measured IC50 for COc1cc2c(cc1Nc1nc(Nc3cccc(F)c3C(N)=O)c3cc[nH]c3n1)N(C(=O)Cn1ccnc1)CC2 [Example 145] .
Given back: 5.01 to 200 nM

Asked: Recall and state the measured IC50 for COc1cc2c(cc1Nc1nc(Nc3cccc(F)c3C(N)=O)c3cc[nH]c3n1)N(C(=O)CN(C)OC)CC2 [Example 144] .
Given back: 5.01 to 200 nM

Asked: Recall and state the measured IC50 for COc1cc(N2CCN(C(C)C)CC2)ccc1Nc1nc(Nc2cccc(C)c2C(N)=O)c2cc[nH]c2n1 [Example 31] .
Given back: 5.01 to 200 nM

Asked: Recall and state the measured IC50 for CNC(=O)c1c(F)cccc1Nc1nc(Nc2cc3c(cc2OC)CCCN3C(=O)CN2CCCCC2)nc2[nH]ccc12 [Example 217] .
Given back: 1.26 to 3.98 nM
